B1: 3'-5' exoribonuclease 1, residues 65 to 114; numbered along this chain, Q8IV48 (parent)
chain: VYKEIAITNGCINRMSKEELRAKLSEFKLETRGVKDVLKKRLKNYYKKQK

# Variants of: B1
# procedure.text: abundance fitness (aPCA) (normalised: wild type 0, dead -1); higher = more abundant; growth selection in yeast, the domain comes from the species named
# condition.parameters: Homo sapiens
endpoint: abundance fitness

[
  {
    "macromolecule.sequence": "LYKEIAITNGCINRMSKEELRAKLSEFKLETRGVKDVLKKRLKNYYKKQK",
    "value.measured": -0.047
  },
  {
    "macromolecule.sequence": "VYKEIAITNGCINRMSKEELRAKSSEFKLETRGVKDVLKKRLKNYYKKQK",
    "value.measured": -0.488
  },
  {
    "macromolecule.sequence": "VYKEIAITNQCINRMSKEELRAKLSEFKLETRGVKDVLKKRLKNYYKKQK",
    "value.measured": -0.125
  },
  {
    "macromolecule.sequence": "VYKEIAITNGQINRMSKEELRAKLSEFKLETRGVKDVLKKRLKNYYKKQK",
    "value.measured": 0.046
  },
  {
    "macromolecule.sequence": "VYKEIAITNGCINRMSKKELRAKLSEFKLETRGVKDVLKKRLKNYYKKQK",
    "value.measured": 0.058
  },
  {
    "macromolecule.sequence": "VYKEIAITNGCINTMSKEELRAKLSEFKLETRGVKDVLKKRLKNYYKKQK",
    "value.measured": -0.226
  },
  {
    "macromolecule.sequence": "VYKEIAITNGCINRMSKEELRAKLSEFKLLTRGVKDVLKKRLKNYYKKQK",
    "value.measured": -0.67
  },
  {
    "macromolecule.sequence": "VYKEIAITNGCINRMSKEDLRAKLSEFKLETRGVKDVLKKRLKNYYKKQK",
    "value.measured": -0.107
  },
  {
    "macromolecule.sequence": "VYKEIAITNGCINRMSKEELRAKLSEFKLETRGVKWVLKKRLKNYYKKQK",
    "value.measured": -0.106
  },
  {
    "macromolecule.sequence": "VYKEIAITNPCINRMSKEELRAKLSEFKLETRGVKDVLKKRLKNYYKKQK",
    "value.measured": -0.248
  },
  {
    "macromolecule.sequence": "VYKEIAITNGCINRMSKEELVAKLSEFKLETRGVKDVLKKRLKNYYKKQK",
    "value.measured": -0.203
  },
  {
    "macromolecule.sequence": "VYKEIAITNGCINVMSKEELRAKLSEFKLETRGVKDVLKKRLKNYYKKQK",
    "value.measured": -0.65
  },
  {
    "macromolecule.sequence": "VYKEIAITNGCINRMSKEELRAKLSEFKLETRGVKDQLKKRLKNYYKKQK",
    "value.measured": -0.148
  },
  {
    "macromolecule.sequence": "TYKEIAITNGCINRMSKEELRAKLSEFKLETRGVKDVLKKRLKNYYKKQK",
    "value.measured": -0.122
  },
  {
    "macromolecule.sequence": "VYKEIAITNGCINRMDKEELRAKLSEFKLETRGVKDVLKKRLKNYYKKQK",
    "value.measured": -0.336
  },
  {
    "macromolecule.sequence": "VYKEIAQTNGCINRMSKEELRAKLSEFKLETRGVKDVLKKRLKNYYKKQK",
    "value.measured": -0.141
  },
  {
    "macromolecule.sequence": "VYKEIAGTNGCINRMSKEELRAKLSEFKLETRGVKDVLKKRLKNYYKKQK",
    "value.measured": -0.13
  },
  {
    "macromolecule.sequence": "VYKEIAITNGCINRMSKEELRAKLSEFKLETRGVKDVNKKRLKNYYKKQK",
    "value.measured": -0.95
  },
  {
    "macromolecule.sequence": "VYKEIAITNGEINRMSKEELRAKLSEFKLETRGVKDVLKKRLKNYYKKQK",
    "value.measured": 0.071
  },
  {
    "macromolecule.sequence": "VYKEIAITNGCINQMSKEELRAKLSEFKLETRGVKDVLKKRLKNYYKKQK",
    "value.measured": -0.072
  },
  {
    "macromolecule.sequence": "WYKEIAITNGCINRMSKEELRAKLSEFKLETRGVKDVLKKRLKNYYKKQK",
    "value.measured": -0.102
  },
  {
    "macromolecule.sequence": "VYKEIAITNGCINRMSKEELRAKLSEFKKETRGVKDVLKKRLKNYYKKQK",
    "value.measured": -0.666
  },
  {
    "macromolecule.sequence": "VYKEIAITNGCINRMSWEELRAKLSEFKLETRGVKDVLKKRLKNYYKKQK",
    "value.measured": -0.871
  },
  {
    "macromolecule.sequence": "VYKMIAITNGCINRMSKEELRAKLSEFKLETRGVKDVLKKRLKNYYKKQK",
    "value.measured": -0.144
  },
  {
    "macromolecule.sequence": "VYKEIAITNGCINRMSKEELRAKLSEFKLETRGVNDVLKKRLKNYYKKQK",
    "value.measured": -0.697
  },
  {
    "macromolecule.sequence": "VYKEIAITNGCINRMSIEELRAKLSEFKLETRGVKDVLKKRLKNYYKKQK",
    "value.measured": -0.329
  },
  {
    "macromolecule.sequence": "VYKEIAITNGCINRMSKEELRARLSEFKLETRGVKDVLKKRLKNYYKKQK",
    "value.measured": -0.101
  },
  {
    "macromolecule.sequence": "VYKEIAITNGCTNRMSKEELRAKLSEFKLETRGVKDVLKKRLKNYYKKQK",
    "value.measured": -0.457
  },
  {
    "macromolecule.sequence": "VYKEIAITNGCINRMSKEELRAKLSEFKLETRGVKDPLKKRLKNYYKKQK",
    "value.measured": -1.02
  },
  {
    "macromolecule.sequence": "VYKEIAITNGCINRMSKEWLRAKLSEFKLETRGVKDVLKKRLKNYYKKQK",
    "value.measured": -0.77
  },
  {
    "macromolecule.sequence": "VYKEIAITNYCINRMSKEELRAKLSEFKLETRGVKDVLKKRLKNYYKKQK",
    "value.measured": -0.238
  },
  {
    "macromolecule.sequence": "VYKEIAILNGCINRMSKEELRAKLSEFKLETRGVKDVLKKRLKNYYKKQK",
    "value.measured": -0.388
  },
  {
    "macromolecule.sequence": "VYKEIAITNGCINRMSKEELRAKLSEFKLETRGVKDVFKKRLKNYYKKQK",
    "value.measured": -0.668
  },
  {
    "macromolecule.sequence": "VYKEIAITNGCINRMSKEELRAKLSEFKLETRGVKDVLKARLKNYYKKQK",
    "value.measured": -0.427
  },
  {
    "macromolecule.sequence": "VYKEIAITNGCINRMNKEELRAKLSEFKLETRGVKDVLKKRLKNYYKKQK",
    "value.measured": -0.041
  },
  {
    "macromolecule.sequence": "VYKEIAITNGCINRMSKEELRAKLSEFKLETRGVRDVLKKRLKNYYKKQK",
    "value.measured": -0.52
  },
  {
    "macromolecule.sequence": "VYKEIAITNGCINRMSKCELRAKLSEFKLETRGVKDVLKKRLKNYYKKQK",
    "value.measured": 0.072
  },
  {
    "macromolecule.sequence": "VYKEIAITNGCANRMSKEELRAKLSEFKLETRGVKDVLKKRLKNYYKKQK",
    "value.measured": -0.873
  },
  {
    "macromolecule.sequence": "VYKEIAITNGCINRMSKEELRAKLSEFKLETRGVKDELKKRLKNYYKKQK",
    "value.measured": -0.096
  }
]

Values were extracted from the Human Domainome abundance scans (Beltran et al. 2025).
